QUANTITY MEASURED: melting point

# example entries with known answers
COMPOUND	melting point
COc1ccccc1NC(=O)Cn1c(-c2ccc(F)cc2)nc2ccccc21 [Compound 24]	206.9 to 207.2 °C
O=C(Cn1c(-c2ccc(F)cc2)nc2ccccc21)N1CCSCC1 [Compound 21]	205.3 to 205.8 °C
Cc1ccc2c(c1)nc(-c1ccc(F)cc1)n2CC(=O)N1CCCC1 [Compound 10]	208.7 to 210.2 °C
Cc1ccc2nc(-c3ccc(F)cc3)n(CC(=O)N3CCSCC3)c2c1 [Compound 11]	205.3 to 207.1 °C

Which melting point value is on record for Cc1ccc2c(c1)nc(-c1ccc(F)cc1)n2CC(=O)Nc1ccccc1 [Compound 14] ?
207.3 to 209.2 °C

====

Each entry below carries its recorded pKi GABA-A.
target: GABA-A receptor (benzodiazepine site, α1/γ2 interface); test: Radioligand binding assay for the GABA-A receptor ([3H]-flunitrazepam displacement, rat brain homogenate); settings: pKi = -log Ki, n.a. = no affinity
Note: the reply should be a number with no unit written.

MOLECULE	TARGET DESC	RECORDED RESULT
Cc1ccc2nc(-c3ccc(F)cc3)n(CC(=O)Nc3ccccc3)c2c1	GABA-A receptor (benzodiazepine site, α1/γ2 interface)	5.53
NC(=O)c1cccc(NC(=O)Cn2c(-c3ccc(F)cc3)nc3ccccc32)c1	GABA-A receptor (benzodiazepine site, α1/γ2 interface)	6.05

Which pKi GABA-A value belongs to "O=C(Cn1c(-c2ccc(F)cc2)nc2ccccc21)Nc1ccc(F)cc1" ?
5.74

Given Cc1ccc(-c2nc3ccc(C)cn3c2CC(=O)N(C)C)cc1 [zolpidem, reference compound] , state its recorded pKi GABA-A.
7.39

Item under review: "CN(C)C(=O)Cn1c(-c2ccc(F)cc2)nc2ccccc21" . Reported pKi GABA-A?
5.39

====

Listing of recorded pKi GABA-A by entry.
target: GABA-A receptor (benzodiazepine site, α1/γ2 interface); assay: Radioligand binding assay for the GABA-A receptor ([3H]-flunitrazepam displacement, rat brain homogenate); details: pKi = -log Ki, n.a. = no affinity
Give the figure only, with no unit attached.

STRUCTURE SMILES STRING	RECORDED RESULT
COc1cccc(NC(=O)Cn2c(-c3ccc(F)cc3)nc3ccccc32)c1	5.02
Cc1ccc2nc(-c3ccc(F)cc3)n(CC(=O)N3CCSCC3)c2c1	5.1
O=C(Cn1c(-c2ccc(F)cc2)nc2ccccc21)N1CCCC1	5.53

// below: pKi GABA-A requested for another compound
// lookup pKi GABA-A for "Cc1ccc2nc(-c3ccc(F)cc3)n(CC(=O)N3CCCC3)c2c1"
5.5

====

Recorded measurements of melting point, one per entry

Check out these entries, answers already filled in.
MOLECULE	melting point
O=C(Cn1c(-c2ccc(F)cc2)nc2ccccc21)Nc1ccc(F)cc1 [Compound 29]	248 to 248.2 °C
COc1ccc(NC(=O)Cn2c(-c3ccc(F)cc3)nc3ccccc32)cc1 [Compound 26]	255.1 to 255.7 °C
CC1CN(C(=O)Cn2c(-c3ccc(F)cc3)nc3ccccc32)CC(C)N1 (stereo not drawn) [Compound 19]	109.6 to 112.4 °C
COc1cccc(NC(=O)Cn2c(-c3ccc(F)cc3)nc3ccccc32)c1 [Compound 25]	149.1 to 149.9 °C
O=C(Cn1c(-c2ccc(F)cc2)nc2ccccc21)Nc1ccccc1F [Compound 27]	212.1 to 212.8 °C

Which melting point value belongs to O=C(Cn1c(-c2ccc(F)cc2)nc2ccccc21)N1CCNCC1 [Compound 17] ?
232.8 to 234.1 °C

Given CN1CCN(C(=O)Cn2c(-c3ccc(F)cc3)nc3ccccc32)CC1 [Compound 18] , state its recorded melting point.
172.3 to 173.1 °C

Which melting point value belongs to O=C(Cn1c(-c2ccc(F)cc2)nc2ccccc21)N1CCCC1 [Compound 16] ?
212.9 to 214 °C

What value of melting point has been recorded for this entry: O=C(Cn1c(-c2ccc(F)cc2)nc2ccccc21)Nc1ccccc1 [Compound 22]
236.7 to 239 °C
